molecular target: SIK3 (Homo sapiens); construct: purchased SignalChem S12-11G-100; assay: biochemical
Sequence (Q9Y2K2 whole entry): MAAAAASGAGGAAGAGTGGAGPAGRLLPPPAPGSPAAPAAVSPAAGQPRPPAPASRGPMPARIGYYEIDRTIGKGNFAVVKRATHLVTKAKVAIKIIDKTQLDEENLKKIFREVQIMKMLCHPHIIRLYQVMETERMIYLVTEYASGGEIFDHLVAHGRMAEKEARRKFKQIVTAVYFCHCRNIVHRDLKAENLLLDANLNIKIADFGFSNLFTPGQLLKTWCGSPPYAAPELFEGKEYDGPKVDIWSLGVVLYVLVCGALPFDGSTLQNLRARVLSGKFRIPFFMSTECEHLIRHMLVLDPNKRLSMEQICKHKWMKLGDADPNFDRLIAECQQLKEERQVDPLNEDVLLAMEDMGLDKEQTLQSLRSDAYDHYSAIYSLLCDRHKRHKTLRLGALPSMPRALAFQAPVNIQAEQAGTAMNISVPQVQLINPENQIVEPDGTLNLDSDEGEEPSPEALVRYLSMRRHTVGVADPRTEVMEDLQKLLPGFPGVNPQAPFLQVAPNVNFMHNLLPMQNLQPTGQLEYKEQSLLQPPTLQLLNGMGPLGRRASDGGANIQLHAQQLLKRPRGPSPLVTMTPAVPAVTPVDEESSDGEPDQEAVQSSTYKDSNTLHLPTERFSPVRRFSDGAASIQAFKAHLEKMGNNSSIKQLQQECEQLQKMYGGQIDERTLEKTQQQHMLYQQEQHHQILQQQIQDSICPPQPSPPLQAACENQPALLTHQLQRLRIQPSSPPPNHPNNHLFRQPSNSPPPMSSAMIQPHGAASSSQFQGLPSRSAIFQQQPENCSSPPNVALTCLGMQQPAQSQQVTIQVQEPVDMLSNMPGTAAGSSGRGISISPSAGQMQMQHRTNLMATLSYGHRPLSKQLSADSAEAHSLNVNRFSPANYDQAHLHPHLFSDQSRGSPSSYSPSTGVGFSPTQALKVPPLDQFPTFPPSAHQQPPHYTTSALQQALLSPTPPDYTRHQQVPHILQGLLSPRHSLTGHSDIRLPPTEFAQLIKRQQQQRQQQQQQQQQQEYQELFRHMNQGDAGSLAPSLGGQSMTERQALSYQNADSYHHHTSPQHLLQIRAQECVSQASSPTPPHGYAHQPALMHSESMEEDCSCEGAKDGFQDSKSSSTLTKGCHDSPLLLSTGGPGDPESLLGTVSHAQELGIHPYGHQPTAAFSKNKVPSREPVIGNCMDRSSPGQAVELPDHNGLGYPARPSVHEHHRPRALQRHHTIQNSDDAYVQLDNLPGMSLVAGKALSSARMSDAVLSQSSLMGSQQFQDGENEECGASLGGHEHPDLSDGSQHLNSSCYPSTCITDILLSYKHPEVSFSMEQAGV
pIC50: −log10 of the molar value.
Reported pIC50 values are given for each entry in this list.

Worked cases, answers included:
Data request: Find the measured pIC50: item CCC(C)NC(=O)c1c(OC)cc(-n2cnc3cc(-c4cnn(C)c4)ccc32)cc1OC (stereo not shown) [compound 114] , target or system SIK3 (Homo sapiens).
Data returned: 6.30 to 7.00

Data request: Form: Entry = COc1cc(-n2cnc3cc(-c4cnoc4)ccc32)cc(OC)c1C(=O)NCC(F)(F)F [Cpd 51] | System = SIK3 (Homo sapiens) | pIC50 = ____
Data returned: 7.00 to 8.00

Data request: Item COc1cc(-n2cnc3cc(-c4cnn(C)c4)ccc32)cc(OC)c1C(=O)N1CC(O)(C2CC2)C1 [compound 220] with SIK3 (Homo sapiens) - pIC50?
Data returned: 7.00 to 8.00

---
Data request: Which measured pIC50 belongs to CCNC(=O)c1c(OC)cc(-n2cnc3cc(-c4cn(C)nc4C)ccc32)cc1OC [compound 8] , tested on SIK3 (Homo sapiens)?
Data returned: 6.30 to 7.00

Data request: Which measured pIC50 belongs to COc1cc(-n2cnc3cc(-c4cnn(CCN5CCOCC5)c4)ccc32)cc(OC(F)F)c1C(=O)NC1CC1 [compound 56] , tested on SIK3 (Homo sapiens)?
Data returned: 8.00 to 11.00

Data request: Notebook: pull reported pIC50 for SIK3 (Homo sapiens), entry COc1cc(-n2cnc3cc(-c4cnn(C)c4)ccc32)cc(OC)c1C(=O)NC1CCCC1(F)F (stereo not shown) [compound 90]
Data returned: 7.00 to 8.00
